# SYSTEM_UNDER_TEST: T1, human TIGIT over-expressed on cells (human, UniProt Q495A1 22-244)
# T1 sequence: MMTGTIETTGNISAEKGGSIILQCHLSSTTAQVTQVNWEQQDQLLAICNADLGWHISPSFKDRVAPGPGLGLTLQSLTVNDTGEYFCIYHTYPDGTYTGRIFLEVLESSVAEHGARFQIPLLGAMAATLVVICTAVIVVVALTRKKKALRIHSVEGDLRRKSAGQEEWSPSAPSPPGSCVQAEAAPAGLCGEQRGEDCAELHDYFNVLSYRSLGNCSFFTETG
# TEST_PROTOCOL: cell-based or functional assay
ATTRIBUTE_MEASURED: luciferase signal in T cell activation, Bottom (best-fit)
Keep it simple and answer with nothing but the number.

If you can, please state the reported luciferase signal in T cell activation, Bottom (best-fit) value of 104G12E12G2 (antibody, V domains shown, Mouse monoclonal antibody; also called mouse anti-human TIGIT monoclonal antibody 104G12E12G2) VH: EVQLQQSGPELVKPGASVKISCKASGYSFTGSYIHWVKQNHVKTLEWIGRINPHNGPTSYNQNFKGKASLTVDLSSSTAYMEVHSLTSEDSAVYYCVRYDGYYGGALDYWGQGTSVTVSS VL: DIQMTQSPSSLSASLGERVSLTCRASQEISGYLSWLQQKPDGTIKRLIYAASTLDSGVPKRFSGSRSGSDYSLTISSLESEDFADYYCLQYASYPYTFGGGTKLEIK .
6
